Origin of measurements: patent US20100272750A1

# Study Target: HLA DRB1*0301 (human)
# Assay Name: competition with 125I probe peptide, purified HLA
pIC50: −log10 of the molar value.
In this section we review reported pIC50 values for a set of binders.
Assay Metric: pIC50

>  <Binder>
LDLQPETTDLYCYEQ (modifications not checked) [HPV16.E7.13 HTL epitope]

>  <Assay Metric>
pIC50

>  <Reading>
6.23

$$$$
>  <Binder>
WKHIRLECVLMYKAR (modifications not checked) [HPV31.E2.033 HTL epitope]

>  <Assay Metric>
pIC50

>  <Reading>
6.84

$$$$
>  <Binder>
WKHMRLECAIYYKAR (modifications not checked) [HPV16.E2.033 HTL epitope]

>  <Assay Metric>
pIC50

>  <Reading>
6.36

$$$$
>  <Binder>
NGWFYVEAVIDRQTG (modifications not checked) [HPV31.E1.15 HTL epitope]

>  <Assay Metric>
pIC50

>  <Reading>
5.55

$$$$
>  <Binder>
TGRCIACWRRPRTET (modifications not checked) [HPV31.E6.132 HTL epitope]

>  <Assay Metric>
pIC50

>  <Reading>
5.99

$$$$
>  <Binder>
DWVMAIFGVNPTVAEGF (modifications not checked) [HPV45.E1.228 HTL epitope]

>  <Assay Metric>
pIC50

>  <Reading>
5.43

$$$$
